Origin of values: ChEMBL document CHEMBL1154674

- measurement-description: Drug level in NMRI mouse cerebrum assessed as standard uptake value at 3.7 MBq/mL, iv after 2 mins by gamma counting
- Type: ADME, organism-based
- stated-conditions: in vivo
Respond with YES for SUV values of 3 and above, NO for values below.

>>> label("[11CH3]Nc1ccc(-c2nc3ccc(O)cc3s2)cc1")
"NO"
>>> label("Nc1ccc2nc(-c3ccc([18F])cc3)sc2c1")
"YES"
>>> label("CNc1ccc2nc(-c3ccc([18F])cc3)sc2c1")
"YES"
>>> label("CN(C)c1ccc2nc(-c3ccc([18F])cc3)sc2c1")
"YES"
>>> label("Cc1ccc2nc(-c3ccc([18F])cc3)sc2c1")
"NO"
